Recorded glycan array binding signal (z-score) by entry
- System: Fuc(a1-3)[Gal(b1-4)]GlcNAc(b1-3)Gal(b1-4)[Fuc(a1-3)]GlcNAc(b1-3)Gal(b1-4)[Fuc(a1-3)]GlcNAc
- Test: glycan array binding signal (z-score within array); higher = stronger binding
- Conditions used: glycan notation: IUPAC condensed, linker removed
About 410 targets per protein were measured; listed, in parts, are those with the strongest signals and a random draw of the rest.
Answer as a number with no unit attached.

Binder: Mermaid1 (Stilbonema majum) (protein) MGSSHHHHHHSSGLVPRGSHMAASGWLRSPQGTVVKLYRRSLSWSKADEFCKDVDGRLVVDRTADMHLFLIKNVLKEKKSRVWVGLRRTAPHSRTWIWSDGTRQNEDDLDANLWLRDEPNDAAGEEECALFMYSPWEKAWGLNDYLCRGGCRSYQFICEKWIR
Assay readout: glycan array binding signal (z-score)
Recorded result: -0.381

Binder: AT5G01260(PC)(40) (Arabidopsis thaliana), Q9LFB0 (protein) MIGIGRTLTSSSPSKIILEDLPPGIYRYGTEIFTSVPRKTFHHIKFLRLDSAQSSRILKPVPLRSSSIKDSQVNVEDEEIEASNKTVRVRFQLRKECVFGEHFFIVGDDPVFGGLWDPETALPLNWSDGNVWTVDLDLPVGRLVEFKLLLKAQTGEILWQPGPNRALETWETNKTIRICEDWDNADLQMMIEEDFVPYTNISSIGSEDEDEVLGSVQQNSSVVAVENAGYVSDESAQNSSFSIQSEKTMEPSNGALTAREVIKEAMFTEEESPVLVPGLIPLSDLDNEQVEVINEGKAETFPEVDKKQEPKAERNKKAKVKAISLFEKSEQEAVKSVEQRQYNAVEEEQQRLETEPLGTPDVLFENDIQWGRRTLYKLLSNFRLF
Assay readout: glycan array binding signal (z-score)
Recorded result: 1.89

Please find the next binder below.
What does the data say about its glycan array binding signal (z-score)? Entry: GSL-I (Griffonia simplicifolia) (protein) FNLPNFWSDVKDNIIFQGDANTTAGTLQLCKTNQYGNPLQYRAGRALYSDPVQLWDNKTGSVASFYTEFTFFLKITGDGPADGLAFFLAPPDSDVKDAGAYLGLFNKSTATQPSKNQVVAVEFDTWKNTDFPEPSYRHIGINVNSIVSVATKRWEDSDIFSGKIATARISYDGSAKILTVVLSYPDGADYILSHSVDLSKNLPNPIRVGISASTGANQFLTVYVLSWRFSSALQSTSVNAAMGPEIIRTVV
-0.188
